# assayed system: ABCB6-∆TMD0 (Homo sapiens, UniProt Q9NP58, DEL318-324)
# assay summary: microscale thermophoresis, initial fluorescence change
# Type: binding
value kind: Kd (µM)
Note: unit µM is implicit; provide only the numeric part.

Look up Kd: "CC1=C(CCC(=O)O)c2cc3nc(cc4[nH]c(cc5[nH]c(cc1n2)c(C)c5CCC(=O)O)c(CCC(=O)O)c4C)C(CCC(=O)O)=C3C"
14.1

---

# assayed system: ABCB6-∆TMD0 (Homo sapiens, UniProt Q9NP58, R435A/R439A/R552A)
# assay summary: microscale thermophoresis, initial fluorescence change
value kind: pKd
# pKd: negative log10 of molar concentration; output just the value

What value of pKd has been reported for the following compound? "CC1=C(CCC(=O)O)c2cc3nc(cc4[nH]c(cc5[nH]c(cc1n2)c(C)c5CCC(=O)O)c(CCC(=O)O)c4C)C(CCC(=O)O)=C3C"
4.75

---

# assayed system: UniProtKB Q9NP58
# Sequence (Q9NP58 206-842): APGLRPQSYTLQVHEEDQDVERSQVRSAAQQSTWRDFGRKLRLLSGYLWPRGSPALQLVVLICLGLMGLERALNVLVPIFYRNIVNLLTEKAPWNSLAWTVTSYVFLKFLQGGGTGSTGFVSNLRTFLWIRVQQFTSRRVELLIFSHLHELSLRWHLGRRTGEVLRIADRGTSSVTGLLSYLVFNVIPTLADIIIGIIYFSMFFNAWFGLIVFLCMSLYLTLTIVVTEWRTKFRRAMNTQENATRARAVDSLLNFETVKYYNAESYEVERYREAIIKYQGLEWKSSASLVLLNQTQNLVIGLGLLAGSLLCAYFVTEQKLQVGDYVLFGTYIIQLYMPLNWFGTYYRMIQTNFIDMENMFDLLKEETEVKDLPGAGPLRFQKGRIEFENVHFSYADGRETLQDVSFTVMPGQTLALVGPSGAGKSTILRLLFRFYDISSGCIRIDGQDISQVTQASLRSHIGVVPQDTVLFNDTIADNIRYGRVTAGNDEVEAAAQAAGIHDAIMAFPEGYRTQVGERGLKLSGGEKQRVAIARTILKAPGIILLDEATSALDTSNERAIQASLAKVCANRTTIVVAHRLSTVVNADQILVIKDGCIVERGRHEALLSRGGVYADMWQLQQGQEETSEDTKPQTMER
value kind: pKd
Conceptually, pKd converts a concentration in mol/L into minus its log10.

Field: pKd (UniProtKB Q9NP58). Entry: "CC1=C(CCC(=O)O)c2cc3nc(cc4[nH]c(cc5[nH]c(cc1n2)c(C)c5CCC(=O)O)c(CCC(=O)O)c4C)C(CCC(=O)O)=C3C"
5.09
